These data points were gathered from patent US9464064B2.

target: HCV NS3 helicase NS3h_1b(con1) (Hepatitis C virus genotype 1b, UniProt Q9WMX2); construct: truncated C-terminally His-tagged NS3 proteins lacking the N-terminal protease, called NS3h; His-tag (C); made in house; assay: MBHA screen of NCI mechanistic set library at 20 μM (percent inhibition, compound interference); format: biochemical; settings: compounds at 20 μM, MBHA with a DNA substrate; calculated from Equation 1
Sequence (Q9WMX2 1192-1657): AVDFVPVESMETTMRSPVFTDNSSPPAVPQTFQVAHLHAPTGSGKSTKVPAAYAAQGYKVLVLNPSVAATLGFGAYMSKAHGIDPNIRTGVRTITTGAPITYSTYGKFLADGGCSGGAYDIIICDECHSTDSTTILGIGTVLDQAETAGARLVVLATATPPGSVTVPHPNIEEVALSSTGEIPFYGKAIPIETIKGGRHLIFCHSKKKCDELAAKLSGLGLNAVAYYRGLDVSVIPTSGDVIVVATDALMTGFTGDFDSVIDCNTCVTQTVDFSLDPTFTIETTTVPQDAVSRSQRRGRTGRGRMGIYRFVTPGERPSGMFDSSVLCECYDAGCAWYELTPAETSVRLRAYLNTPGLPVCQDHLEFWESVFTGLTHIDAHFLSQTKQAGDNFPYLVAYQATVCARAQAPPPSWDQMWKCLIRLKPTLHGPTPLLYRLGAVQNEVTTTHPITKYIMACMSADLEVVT
Each record here notes measured Inh. (%) (Inhibition).
experimental.endpoint: Inh. (%) (Inhibition)

molecule: CCOC(=O)CCc1c(C)c2c(O)cc(O)cc2oc1=O [Compound 622616]
experimental.target: HCV NS3 helicase NS3h_1b(con1) (Hepatitis C virus genotype 1b, UniProt Q9WMX2)
experimental.endpoint: Inh. (%) (Inhibition)
readout.value: −6.5

molecule: CC1=CC(C)(C)N=C2SC(c3ccc(N)cc3)=NN12 [Compound 640624]
experimental.target: HCV NS3 helicase NS3h_1b(con1) (Hepatitis C virus genotype 1b, UniProt Q9WMX2)
experimental.endpoint: Inh. (%) (Inhibition)
readout.value: −4.2

molecule: COC(=O)C[S+]([O-])c1ccccc1 (stereo not drawn) [Compound 620050]
experimental.target: HCV NS3 helicase NS3h_1b(con1) (Hepatitis C virus genotype 1b, UniProt Q9WMX2)
experimental.endpoint: Inh. (%) (Inhibition)
readout.value: −3.3

molecule: COc1ccc(/C=C2\CCCc3ccccc3C2=O)cc1 [Compound 687667]
experimental.target: HCV NS3 helicase NS3h_1b(con1) (Hepatitis C virus genotype 1b, UniProt Q9WMX2)
experimental.endpoint: Inh. (%) (Inhibition)
readout.value: −29.0

molecule: CCCCCCCCCCCCCCCCCCOCC(COCCOCC[N+]1(CCCCCC(=O)[O-])CCCC1)Oc1ncccn1 (stereo not drawn) [Compound 623527]
experimental.target: HCV NS3 helicase NS3h_1b(con1) (Hepatitis C virus genotype 1b, UniProt Q9WMX2)
experimental.endpoint: Inh. (%) (Inhibition)
readout.value: −21.1

molecule: Cc1nc(Nc2ccc(Cl)c(Cl)c2)sc1C(/C=C/c1ccc2c(c1)OCO2)=N/Nc1ccc([N+](=O)[O-])cc1[N+](=O)[O-] [Compound 640335]
experimental.target: HCV NS3 helicase NS3h_1b(con1) (Hepatitis C virus genotype 1b, UniProt Q9WMX2)
experimental.endpoint: Inh. (%) (Inhibition)
readout.value: −24.2

molecule: O=[N+]([O-])c1cc(C(F)(F)F)cc([N+](=O)[O-])c1CCl [Compound 622627]
experimental.target: HCV NS3 helicase NS3h_1b(con1) (Hepatitis C virus genotype 1b, UniProt Q9WMX2)
experimental.endpoint: Inh. (%) (Inhibition)
readout.value: −26.2

molecule: Cl.NC(=O)c1cn(C2OC(CO)C(O)C2O)c2ncnc(N)c12 (stereo not drawn) [Compound 143648]
experimental.target: HCV NS3 helicase NS3h_1b(con1) (Hepatitis C virus genotype 1b, UniProt Q9WMX2)
experimental.endpoint: Inh. (%) (Inhibition)
readout.value: −4.1

molecule: N#CC(=S)Nc1ccc(Cl)c(Cl)c1 [Compound 379531]
experimental.target: HCV NS3 helicase NS3h_1b(con1) (Hepatitis C virus genotype 1b, UniProt Q9WMX2)
experimental.endpoint: Inh. (%) (Inhibition)
readout.value: 11.6

molecule: CC1=C[C@H]2O[C@@H]3[C@H](O)[C@@H](O)[C@@](C)([C@@]2(CO)CC1)[C@]31CO1 [Compound 269142]
experimental.target: HCV NS3 helicase NS3h_1b(con1) (Hepatitis C virus genotype 1b, UniProt Q9WMX2)
experimental.endpoint: Inh. (%) (Inhibition)
readout.value: −19.6

molecule: NC(=Nc1nc(-c2ccccn2)cc2ccccc12)c1ccccn1 [Compound 637578]
experimental.target: HCV NS3 helicase NS3h_1b(con1) (Hepatitis C virus genotype 1b, UniProt Q9WMX2)
experimental.endpoint: Inh. (%) (Inhibition)
readout.value: 7.9

molecule: Nc1ccc2c(c1)CN1C(=O)c3ccccc3C1=N2 [Compound 320846]
experimental.target: HCV NS3 helicase NS3h_1b(con1) (Hepatitis C virus genotype 1b, UniProt Q9WMX2)
experimental.endpoint: Inh. (%) (Inhibition)
readout.value: 10.7

molecule: CC12CC(Br)(Br)C(=O)C3C1CCCC32 [Compound 624358]
experimental.target: HCV NS3 helicase NS3h_1b(con1) (Hepatitis C virus genotype 1b, UniProt Q9WMX2)
experimental.endpoint: Inh. (%) (Inhibition)
readout.value: −4.4

molecule: N=N/C(=C\c1c(O)[nH]c2ccccc12)c1ccccc1 [Compound 175274]
experimental.target: HCV NS3 helicase NS3h_1b(con1) (Hepatitis C virus genotype 1b, UniProt Q9WMX2)
experimental.endpoint: Inh. (%) (Inhibition)
readout.value: 7.0

molecule: CC(Cc1ccccc1)NC1=NCCO1 (stereo not drawn) [Compound 664298]
experimental.target: HCV NS3 helicase NS3h_1b(con1) (Hepatitis C virus genotype 1b, UniProt Q9WMX2)
experimental.endpoint: Inh. (%) (Inhibition)
readout.value: 9.8

molecule: COc1cc(O)c(Cc2ccccc2O)c(O)c1C(=O)CCc1ccccc1 [Compound 241906]
experimental.target: HCV NS3 helicase NS3h_1b(con1) (Hepatitis C virus genotype 1b, UniProt Q9WMX2)
experimental.endpoint: Inh. (%) (Inhibition)
readout.value: −6.2

molecule: O=C1c2ccccc2C(=O)c2sc(Nc3ccc(Cl)cc3)nc21 [Compound 631529]
experimental.target: HCV NS3 helicase NS3h_1b(con1) (Hepatitis C virus genotype 1b, UniProt Q9WMX2)
experimental.endpoint: Inh. (%) (Inhibition)
readout.value: −28.9

molecule: Cc1nc(-n2nc(-c3ccccc3)cc2-c2ccccc2)sc1C(=O)/C=C/c1ccc(Cl)c(Cl)c1 [Compound 640584]
experimental.target: HCV NS3 helicase NS3h_1b(con1) (Hepatitis C virus genotype 1b, UniProt Q9WMX2)
experimental.endpoint: Inh. (%) (Inhibition)
readout.value: 9.6
